Listed next: entries and their corresponding EC50.
Molecular target: UniProtKB P43220
Sequence (P43220 24-463): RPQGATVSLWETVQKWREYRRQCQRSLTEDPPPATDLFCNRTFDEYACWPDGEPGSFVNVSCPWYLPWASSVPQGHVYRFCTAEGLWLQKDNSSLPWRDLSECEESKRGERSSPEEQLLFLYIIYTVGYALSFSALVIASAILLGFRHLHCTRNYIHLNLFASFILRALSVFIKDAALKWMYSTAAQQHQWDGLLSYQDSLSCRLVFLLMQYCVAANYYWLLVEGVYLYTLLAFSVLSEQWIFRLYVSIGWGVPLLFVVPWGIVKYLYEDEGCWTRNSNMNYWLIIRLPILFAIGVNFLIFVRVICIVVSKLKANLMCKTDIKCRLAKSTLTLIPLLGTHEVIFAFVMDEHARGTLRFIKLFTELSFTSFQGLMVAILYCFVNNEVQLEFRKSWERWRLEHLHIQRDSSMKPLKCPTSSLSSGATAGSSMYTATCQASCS
Assay: GLP-1R cAMP assay (cAMP accumulation in CHO cells stably overexpressing the human GLP-1 receptor, HitHunter kit)
Details: CHO cells stably overexpressing human GLP-1R, 30 min, 20-point dose response in triplicate
Protocol: CAMP accumulation was measured in Chinese hamster ovary (CHO) cells (10,000 cells/well) stably overexpressing the human GLP-1 receptor using the HitHunter CAMP Assay for Small Molecules Kit (Eurofins). […] After overnight incubation, luminescence was measured using a Perkin Elmer Envision plate reader. Dose response curves were analyzed using GraphPad Prism 9.0. […]

As a guide, the following entries are already answered.
> print(dat)
                                   compound  endpoint.label  observed.value
1  C[C@H]1C[C@@H](Oc2ccnc(COc3ccc(F)cc3C#N)n2)CCN1Cc1nc2ccc(C(=O)O)cc2n1CCOCC(F)(F)F [Compound 601]            EC50        < 0.1 nM
2  N#Cc1ccc(OCc2nccc(O[C@H]3CC[C@@H](Cc4nc5ccc(C(=O)O)cc5n4C[C@@H]4CCO4)CC3)n2)c(F)c1 [Compound 641]            EC50   100 to 500 nM

Task item: // Input: C[C@H]1C[C@@H](Oc2ccnc(COc3ccc(C#N)cn3)n2)CCN1Cc1nc2c(F)cc(C(=O)O)cc2n1C[C@@H]1CCO1 [Compound 604] . Output its EC50 only.
Reply: 0.1 to 1 nM

Data origin: patent US20260317309A1
